Tested on: male ICR mice
Conditions: oral, single dose of 1 g/10 mL/kg in 1% hydroxypropylmethylcellulose, 5-week old male ICR mice, observed 2 weeks
Method: In order to examine acute toxicity of compounds according to the present invention, the following experiment was carried out. Over the entire experimental period of 2 weeks, the minimum lethal dose (MLD, mg/kg) of the compound was investigated by the observation of the mortality, body weight and clinical symptoms of animals.
In this section we review reported Minimum lethal dose (MLD, mg/kg) values for a set of compounds.

Below: 3 compounds and their reported Minimum lethal dose (MLD, mg/kg).
{"columns": ["compound", "Minimum lethal dose (MLD, mg/kg)"],
 "data": [
  ["CCCOC(=O)N1CCC(CN2CC[C@H](NC(=O)c3cc(Cl)c(N)cc3OC)[C@H](OC)C2)CC1 (relative stereo)", ">1000 mg/kg"],
  ["CCOC(=O)N1CCC(CN2CC[C@H](NC(=O)c3cc(Cl)c(N)cc3OC)[C@H](OC)C2)CC1 (relative stereo)", ">1000 mg/kg"],
  ["COc1cc(N)c(Cl)cc1C(=O)N[C@H]1CCN(CC2CCN(C(=O)NC(C)C)CC2)C[C@H]1OC (relative stereo)", ">1000 mg/kg"]
]}

Now examine the next entry.
[Q] Which Minimum lethal dose (MLD, mg/kg) value is on record for "CCOC(=O)N1CCC(CN2CC[C@@H](NC(=O)c3cc(Cl)c(N)cc3OC)[C@@H](OC)C2)CC1" ?
[A] >1000 mg/kg

###

test system: male ICR mice; settings: male, ICR, mouse, in vivo, po, 2 weeks
outcome_measure: Minimum lethal dose (MLD, mg/kg)

Below: 4 molecules and their reported Minimum lethal dose (MLD, mg/kg).
{"columns": ["molecule", "Minimum lethal dose (MLD, mg/kg)"],
 "data": [
  ["COc1cc(N)c(Cl)cc1C(=O)NC1CCN(CCCOc2ccc(F)cc2)CC1OC (centres unmarked) [Cisapride, cisapride, reference compound]", ">1000 mg/kg"],
  ["COc1cc(N)c(Cl)cc1C(=O)N[C@H]1CCN(CCC(=O)Nc2cccc3ncccc23)C[C@H]1OC (relative stereo) [Compound 56]", ">1000 mg/kg"],
  ["COc1cc(N)c(Cl)cc1C(=O)N[C@H]1CCN(CC2CCN(C(=O)C(C)(C)C)CC2)C[C@H]1OC (relative stereo) [Compound 29]", ">1000 mg/kg"],
  ["CCC(=O)N1CCC(CN2CC[C@H](NC(=O)c3cc(Cl)c(N)cc3OC)[C@H](OC)C2)CC1 (relative stereo) [Compound 17]", ">1000 mg/kg"]
]}

Now examine the next entry.
[Q] Which Minimum lethal dose (MLD, mg/kg) value is on record for COc1cc(N)c(Cl)cc1C(=O)N[C@H]1CCN(CC2CCN(C(=O)C(C)C)CC2)C[C@H]1OC (relative stereo) [Compound 14] ?
[A] >1000 mg/kg

###

tested on: male ICR mice; conditions: male, ICR, mouse, in vivo, po, 2 weeks
outcome_measure: Minimum lethal dose (MLD, mg/kg)

Below: 2 compounds and their reported Minimum lethal dose (MLD, mg/kg).
{"columns": ["compound", "measured"],
 "data": [
  ["COc1cc(N)c(Cl)cc1C(=O)N[C@H]1CCN(CCC(=O)Nc2cc(C)cc(C)n2)C[C@H]1OC (relative stereo) [Compound 59]", ">1000 mg/kg"],
  ["COc1cc(N)c(Cl)cc1C(=O)N[C@H]1CCN(CCc2noc(C)n2)C[C@H]1OC (relative stereo) [Compound 54]", ">1000 mg/kg"]
]}

Now examine the next entry.
[Q] Which measured Minimum lethal dose (MLD, mg/kg) belongs to COc1cc(N)c(Cl)cc1C(=O)N[C@H]1CCN(CC2CCN(C(=O)N(C)C)CC2)C[C@H]1OC (relative stereo) [Compound 64] , tested on male ICR mice?
[A] >1000 mg/kg

All values here come from patent US20100105727A1.
